- System under test: PTK6 (human)
- Test protocol: radiometric filter-binding kinase assay
- Condition details: compound 1.0 µM
Metric: residual activity (%)

NCC(=O)Nc1ccc(-n2nc(C(F)(F)F)cc2-c2ccc3c(ccc4ccccc43)c2)cc1
91

I = COc1cc(O)c2c(c1)[C@H]1OC1C[C@H](O)[C@H](O)C(=O)/C=C\C[C@H](C)OC2=O (stereo not given in full)
II = CNc1nc(-c2ccc3c(N)n[nH]c3c2)cc(N2C[C@@H](C(=O)NC3CCCCC3)CC[C@H]2C)n1
III = COc1ccc(N(C(=O)Nc2c(C)cccc2C)c2cc(Nc3ccc(N4CCN(C)CC4)cc3)ncn2)c(OC)c1
IV = COc1ccc(-n2ncc3cnc(Nc4cc(OC)c(OC)c(OCCCN5CCN(C)CC5)c4)nc32)cc1
I would appreciate it if you could sort these 4 molecules by residual activity, starting from the smallest number. Dear reader, please state the labels in the requested order. III, IV, I, II
(III: 3%, IV: 6%, I: 48%, II: 127%)
